Assay: activity coefficient (dimensionless); of the first substance listed, at infinite dilution; xn = mol fraction of the nth substance listed
Details: 338.15 K; 101 kPa; Liquid; Chromatography; x1 = 0
endpoint.label: activity coefficient

molecule: C1=CCCCC1 [cyclohexene] + COCC[N+]1(C)CCCCC1.O=S(=O)([N-]S(=O)(=O)C(F)(F)F)C(F)(F)F
measured.number: 5
//
molecule: CCCOCCC [dipropyl ether] + COCC[N+]1(C)CCCCC1.O=S(=O)([N-]S(=O)(=O)C(F)(F)F)C(F)(F)F
measured.number: 6.13
//
molecule: C=Cc1ccccc1 [styrene] + COCC[N+]1(C)CCCCC1.O=S(=O)([N-]S(=O)(=O)C(F)(F)F)C(F)(F)F
measured.number: 1.13
//
molecule: C1CCCCCC1 [cycloheptane] + COCC[N+]1(C)CCCCC1.O=S(=O)([N-]S(=O)(=O)C(F)(F)F)C(F)(F)F
measured.number: 11.7
//
molecule: c1ccncc1 [pyridine] + COCC[N+]1(C)CCCCC1.O=S(=O)([N-]S(=O)(=O)C(F)(F)F)C(F)(F)F
measured.number: 0.562
//
molecule: CCC(C)(C)C [2,2-dimethylbutane] + COCC[N+]1(C)CCCCC1.O=S(=O)([N-]S(=O)(=O)C(F)(F)F)C(F)(F)F
measured.number: 12.4
//
molecule: O [water] + COCC[N+]1(C)CCCCC1.O=S(=O)([N-]S(=O)(=O)C(F)(F)F)C(F)(F)F
measured.number: 2.62
//
molecule: CCC(=O)CC [pentan-3-one] + COCC[N+]1(C)CCCCC1.O=S(=O)([N-]S(=O)(=O)C(F)(F)F)C(F)(F)F
measured.number: 0.821
//
molecule: Cc1ccccc1 [toluene] + COCC[N+]1(C)CCCCC1.O=S(=O)([N-]S(=O)(=O)C(F)(F)F)C(F)(F)F
measured.number: 1.32
//
molecule: COC(C)=O [methyl ethanoate] + COCC[N+]1(C)CCCCC1.O=S(=O)([N-]S(=O)(=O)C(F)(F)F)C(F)(F)F
measured.number: 0.726
//
molecule: C1COCCO1 [1,4-dioxane] + COCC[N+]1(C)CCCCC1.O=S(=O)([N-]S(=O)(=O)C(F)(F)F)C(F)(F)F
measured.number: 0.654
//
molecule: C=CCCCC [hex-1-ene] + COCC[N+]1(C)CCCCC1.O=S(=O)([N-]S(=O)(=O)C(F)(F)F)C(F)(F)F
measured.number: 8.05
//
molecule: CCO [ethanol] + COCC[N+]1(C)CCCCC1.O=S(=O)([N-]S(=O)(=O)C(F)(F)F)C(F)(F)F
measured.number: 1.45
//
molecule: CC(C)=O [acetone] + COCC[N+]1(C)CCCCC1.O=S(=O)([N-]S(=O)(=O)C(F)(F)F)C(F)(F)F
measured.number: 0.48
//
molecule: C#CCCCC [1-hexyne] + COCC[N+]1(C)CCCCC1.O=S(=O)([N-]S(=O)(=O)C(F)(F)F)C(F)(F)F
measured.number: 3
//
molecule: CCOC(C)(C)C [2-ethoxy-2-methylpropane] + COCC[N+]1(C)CCCCC1.O=S(=O)([N-]S(=O)(=O)C(F)(F)F)C(F)(F)F
measured.number: 5.62
//
molecule: c1ccccc1 [benzene] + COCC[N+]1(C)CCCCC1.O=S(=O)([N-]S(=O)(=O)C(F)(F)F)C(F)(F)F
measured.number: 0.934
//
molecule: COC(C)(C)C [2-methoxy-2-methylpropane] + COCC[N+]1(C)CCCCC1.O=S(=O)([N-]S(=O)(=O)C(F)(F)F)C(F)(F)F
measured.number: 2.63
//
molecule: Cc1ccccc1C [1,2-dimethylbenzene] + COCC[N+]1(C)CCCCC1.O=S(=O)([N-]S(=O)(=O)C(F)(F)F)C(F)(F)F
measured.number: 1.69
//
molecule: C=CCCCCCCCC [1-decene] + COCC[N+]1(C)CCCCC1.O=S(=O)([N-]S(=O)(=O)C(F)(F)F)C(F)(F)F
measured.number: 31.4
//
molecule: CCOC(C)=O [ethyl acetate] + COCC[N+]1(C)CCCCC1.O=S(=O)([N-]S(=O)(=O)C(F)(F)F)C(F)(F)F
measured.number: 0.948
//
molecule: CCOCC [diethyl ether] + COCC[N+]1(C)CCCCC1.O=S(=O)([N-]S(=O)(=O)C(F)(F)F)C(F)(F)F
measured.number: 2.58
//
molecule: C1CCCCCCC1 [cyclooctane] + COCC[N+]1(C)CCCCC1.O=S(=O)([N-]S(=O)(=O)C(F)(F)F)C(F)(F)F
measured.number: 15.4
//
molecule: CO [methanol] + COCC[N+]1(C)CCCCC1.O=S(=O)([N-]S(=O)(=O)C(F)(F)F)C(F)(F)F
measured.number: 1.17
//
molecule: CCCCO [butan-1-ol] + COCC[N+]1(C)CCCCC1.O=S(=O)([N-]S(=O)(=O)C(F)(F)F)C(F)(F)F
measured.number: 2.22
//
molecule: C1CCCC1 [cyclopentane] + COCC[N+]1(C)CCCCC1.O=S(=O)([N-]S(=O)(=O)C(F)(F)F)C(F)(F)F
measured.number: 6.13
//
molecule: CCCCCCC [heptane] + COCC[N+]1(C)CCCCC1.O=S(=O)([N-]S(=O)(=O)C(F)(F)F)C(F)(F)F
measured.number: 21.2
//
molecule: Cc1ccc(C)cc1 [1,4-dimethylbenzene] + COCC[N+]1(C)CCCCC1.O=S(=O)([N-]S(=O)(=O)C(F)(F)F)C(F)(F)F
measured.number: 1.13

FYI, the data here is from the NIST ThermoML archive (doi:10.1016/j.jct.2012.01.019).
